# Test system: UACC-62 melanoma
# PROCEDURE DETAILS: NCI-60 one-dose screen, 48 h
# COND: 10 µM unless noted
The panel holds about 83,000 compounds, 20% with a hit somewhere; the sample as a whole holds those more often. Activity calls are given as the source filed them. The calls were made as follows: active = growth percent below 10; inactive = the rest.
Pick one: active, inactive

{"columns": ["COMPOUND", "CATEGORY"],
 "data": [
  ["CCCCCn1sc(=O)n(Cc2ccc(CNC(=O)OCc3ccc4c(Cl)cc(Cl)c(O)c4n3)cc2)c1=O", "inactive"],
  ["CC1O[C@@H]2C[C@@](O)([C@H]1O)n1c3ccccc3c3c4c(c5c6ccccc6n2c5c31)C(=O)NC4=O (stereo not given in full)", "active"],
  ["COc1ccc(-c2oc(=O)ccc2-c2cc(OC)c(OC)c(OC)c2)cc1O", "inactive"]
]}

Assay result, entry `O=C(CCCCCCN1CC(=O)N2[C@@H](C3CCCCC3)c3[nH]c4ccccc4c3C[C@H]2C1=O)NO` — outcome?
inactive

---

# System: T-47D breast
# PROCEDURE DETAILS: NCI-60 one-dose screen, 48 h (100 = growth as untreated, 0 = no growth, -100 = all killed)
# COND: 10 µM unless noted
# Protocol: Growth inhibition of the T-47D human tumor cell line is measured as a screen for anti-cancer activity. Cells are grown in 96 well plates and exposed to the test compound for 48 hours. Compounds are tested at a single concentration, which is 10^-5 M for most compounds. The reported endpoint is percent growth (GI% or GIPRCNT), where numbers from 0 - 100% represent growth inhibition, and numbers from -100% - 0 represent cell death. For example, a value of 40 represents 60% growth inhibition. […]
Compounds without any hit were thinned out: in the full panel of roughly 83,000, 20% have a hit.
Please use Met for growth under 60% and Not met for everything else, ties included.

Example entries begin here.
{"columns": ["MOLECULE", "CATEGORY"],
 "data": [
  ["C/C(C=O)=C\\c1ccc2c(c1)OCO2", "Not met"],
  ["COc1ccc(C2=NN(C(=O)c3cc(OC)c(OC)c(OC)c3)C(c3ccc(N(C)C)cc3)C2)cc1 (stereo not drawn)", "Met"],
  ["CC1(C)CC2=C3C=C[C@@H]4[C@@]5(C)CC[C@H](O)C(C)(C)[C@@H]5CC[C@@]4(C)[C@]3(C)CC[C@@]2(C(=O)O)CC1=O", "Met"],
  ["COc1cc(Nc2ncccc2NC(=O)c2cn(Cc3cccc(Oc4ccccc4)c3)nn2)cc(OC)c1", "Not met"],
  ["CCc1cccc(Sc2cc(C(=O)N3Cc4ccc(OCCN(C)C)cc4C3)ccc2O)c1", "Met"],
  ["COC(=O)/C(CCC=C(C)C)=C1\\[C@@H](OC(C)=O)C[C@@]2(C)[C@H]1CC(=O)[C@H]1[C@@]3(C)CCC(N4CCCC4)[C@@H](C)[C@@H]3CC[C@@]12C (stereo partly drawn)", "Not met"]
]}

Could you now consider this next molecule?
Hi there! Is growth for `N#Cc1c(N2CCOCC2)nc(=S)[nH]c1-c1ccccc1` below 60%, do you know?
Met

---

# System: RPMI-8226 leukemia
# PROCEDURE DETAILS: NCI-60 one-dose screen, 48 h (100 = growth as untreated, 0 = no growth, -100 = all killed)
# COND: 10 µM unless noted
This is part of a sample that, as a whole, favours compounds with a hit. Of some 83,000 tested, about 20% had one in any assay.
Please use Condition met for growth under 40% and Condition not met for everything else, ties included.

{"columns": ["MOLECULE", "CATEGORY"],
 "data": [
  ["O=C(/C=C\\c1ccco1)/C=C/c1ccco1", "Condition not met"],
  ["CC[C@H](Nc1nc(N)nc(C)c1C#N)c1nc2cccc(NCCCCCC(=O)NO)c2c(=O)n1-c1ccccc1", "Condition not met"]
]}

Hi there! Is growth for `O=C(CSc1nc2ccc([N+](=O)[O-])cc2[nH]1)Nc1cccc([N+](=O)[O-])c1` below 40%, do you know?
Condition met

Hi there! Is growth for `Cc1c2cnccc2c(C)c2c1c1cc(C3OCCCO3)ccc1n2C` below 40%, do you know?
Condition met

Hi there! Is growth for `O=C(/C=C/c1ccccc1)Nc1ncc(Cc2ccccc2)s1` below 40%, do you know?
Condition met

Hi there! Is growth for `COc1ccc(Cn2cc(C(=O)N=Nc3c(O)[nH]c4c(Cl)cccc34)nn2)cc1` below 40%, do you know?
Condition not met

Hi there! Is growth for `N=C(N)SCc1cccc2c(CSC(=N)N)cccc12` below 40%, do you know?
Condition not met

Hi there! Is growth for `CCN(CC)CCOc1nc2c3ccc(Cl)cc3nn2c2ccccc12` below 40%, do you know?
Condition met

Hi there! Is growth for `COc1cc2oc(-c3cccc(NC(=O)c4ccc5c(c4)OCO5)c3)cc(=O)c2c(OC)c1OC` below 40%, do you know?
Condition met

Hi there! Is growth for `CNCc1cccc2c1OCCOCCN(C)C(=O)CN(C)S(=O)(=O)c1ccc(cc1)-c1cnc(N)c(n1)C(=O)N2` below 40%, do you know?
Condition not met

Hi there! Is growth for `O=C1c2cccnc2C(=O)c2c1c(C(=O)OCCCN1CCCCC1)c1ccccn21` below 40%, do you know?
Condition met

Hi there! Is growth for O=C(O)C1CN(c2cccc(Cl)c2)N(c2cccc(Cl)c2)C1=O (stereo unspecified) below 40%, do you know?
Condition not met

Hi there! Is growth for `COc1cc(-c2nc3ccc(C)cc3[nH]2)ccc1OCC(=O)N=Nc1c(O)[nH]c2ccc(Cl)cc12` below 40%, do you know?
Condition met
